Origin of the recorded values: ChEMBL document CHEMBL5661979

Molecular target: UniProtKB P49761
Experiment: Inhibition of CLK3 in human HeLa cells lysate pre incubated for 15 mins followed by ADP acyl phosphate probe addition and measured after 10 mins by LC-MS/MS analysis
pIC50: −log10 of the molar value.
Readout: pIC50

compound CCOc1cc(N2CCC(O)CC2)ccc1Nc1ncc2c(n1)N(C)c1ccccc1C(=O)N2C , pIC50 observed: < 4.30

----------
Target: UniProt:P51617
Sequence (P51617 whole entry): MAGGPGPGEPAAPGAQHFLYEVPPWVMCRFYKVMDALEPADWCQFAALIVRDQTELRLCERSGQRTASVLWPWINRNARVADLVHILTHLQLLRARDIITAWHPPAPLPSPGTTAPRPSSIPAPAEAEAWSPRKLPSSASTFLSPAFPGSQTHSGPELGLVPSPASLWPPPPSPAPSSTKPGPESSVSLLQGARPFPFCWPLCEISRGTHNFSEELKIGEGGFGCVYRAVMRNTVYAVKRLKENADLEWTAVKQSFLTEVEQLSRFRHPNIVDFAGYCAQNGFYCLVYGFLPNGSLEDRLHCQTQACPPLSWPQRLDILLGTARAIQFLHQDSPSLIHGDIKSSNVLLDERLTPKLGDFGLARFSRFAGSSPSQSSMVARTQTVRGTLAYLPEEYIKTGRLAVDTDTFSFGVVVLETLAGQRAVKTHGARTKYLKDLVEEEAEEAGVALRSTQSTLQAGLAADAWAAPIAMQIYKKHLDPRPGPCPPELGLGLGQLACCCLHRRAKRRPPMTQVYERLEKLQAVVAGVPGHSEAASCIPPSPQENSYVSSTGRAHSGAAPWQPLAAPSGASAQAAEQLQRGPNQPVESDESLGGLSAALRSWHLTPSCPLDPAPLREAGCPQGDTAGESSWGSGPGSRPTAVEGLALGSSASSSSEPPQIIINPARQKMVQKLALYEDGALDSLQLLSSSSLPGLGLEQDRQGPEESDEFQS
Assay: Inhibition of IRAK1 in human HeLa cells lysate pre incubated for 15 mins followed by ATP acyl phosphate probe addition and measured after 10 mins by LC-MS/MS analysis
pIC50: −log10 of the molar value.
Readout: pIC50

Lab book: pIC50 of CCOc1cc(N2CCC(O)CC2)ccc1Nc1ncc2c(n1)N(C)c1ccccc1C(=O)N2C noted as < 4.30

----------
Target: Cyclin-dependent kinase 13 (Homo sapiens, UniProt Q14004)
Sequence (Q14004 whole entry): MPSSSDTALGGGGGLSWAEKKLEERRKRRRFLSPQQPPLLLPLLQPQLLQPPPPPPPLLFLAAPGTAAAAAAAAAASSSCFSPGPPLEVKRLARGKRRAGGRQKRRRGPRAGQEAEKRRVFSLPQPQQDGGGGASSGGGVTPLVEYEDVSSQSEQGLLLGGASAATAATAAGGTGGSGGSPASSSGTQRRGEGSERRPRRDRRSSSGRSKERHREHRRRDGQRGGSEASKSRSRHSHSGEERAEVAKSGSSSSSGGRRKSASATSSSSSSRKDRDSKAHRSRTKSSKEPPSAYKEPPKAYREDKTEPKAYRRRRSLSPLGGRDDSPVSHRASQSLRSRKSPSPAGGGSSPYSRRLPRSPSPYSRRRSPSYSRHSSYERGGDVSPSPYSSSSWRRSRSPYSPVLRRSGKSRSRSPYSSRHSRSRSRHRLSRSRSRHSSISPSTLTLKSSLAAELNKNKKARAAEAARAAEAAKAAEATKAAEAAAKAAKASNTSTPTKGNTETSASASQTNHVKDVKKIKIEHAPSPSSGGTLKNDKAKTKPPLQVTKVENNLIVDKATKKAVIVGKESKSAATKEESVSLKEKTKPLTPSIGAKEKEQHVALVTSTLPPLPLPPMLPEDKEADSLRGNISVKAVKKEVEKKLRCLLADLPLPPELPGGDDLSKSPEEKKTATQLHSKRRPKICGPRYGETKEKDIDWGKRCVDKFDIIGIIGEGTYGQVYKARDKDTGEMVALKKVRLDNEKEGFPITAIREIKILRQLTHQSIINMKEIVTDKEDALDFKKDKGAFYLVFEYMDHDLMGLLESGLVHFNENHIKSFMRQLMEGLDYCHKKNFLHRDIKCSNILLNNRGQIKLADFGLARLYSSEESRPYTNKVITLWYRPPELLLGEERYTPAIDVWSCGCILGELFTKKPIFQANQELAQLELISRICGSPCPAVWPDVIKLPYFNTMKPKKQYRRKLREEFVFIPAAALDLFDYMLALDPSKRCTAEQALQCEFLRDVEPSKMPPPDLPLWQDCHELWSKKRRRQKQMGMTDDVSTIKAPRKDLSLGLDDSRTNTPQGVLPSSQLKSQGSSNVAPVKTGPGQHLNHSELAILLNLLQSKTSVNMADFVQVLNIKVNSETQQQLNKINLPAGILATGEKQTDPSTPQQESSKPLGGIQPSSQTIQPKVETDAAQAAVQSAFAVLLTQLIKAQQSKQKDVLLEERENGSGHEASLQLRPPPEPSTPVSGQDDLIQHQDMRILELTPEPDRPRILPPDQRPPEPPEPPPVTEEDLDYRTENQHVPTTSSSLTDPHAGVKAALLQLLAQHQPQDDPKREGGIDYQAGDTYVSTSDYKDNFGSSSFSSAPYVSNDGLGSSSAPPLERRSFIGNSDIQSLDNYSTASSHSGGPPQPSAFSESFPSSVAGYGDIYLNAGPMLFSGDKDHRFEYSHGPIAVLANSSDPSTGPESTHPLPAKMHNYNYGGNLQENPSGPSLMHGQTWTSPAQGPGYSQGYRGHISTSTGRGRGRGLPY
Assay: Inhibition of CHED in human HeLa cells lysate pre incubated for 15 mins followed by ADP acyl phosphate probe addition and measured after 10 mins by LC-MS/MS analysis
Format: subcellular
Readout: IC50

Recorded result, CCOc1cc(N2CCC(O)CC2)ccc1Nc1ncc2c(n1)N(C)c1ccccc1C(=O)N2C , IC50: > 50 µM

----------
Biological target: Non-receptor tyrosine-protein kinase TNK1 (Homo sapiens)
Sequence (Q13470 whole entry): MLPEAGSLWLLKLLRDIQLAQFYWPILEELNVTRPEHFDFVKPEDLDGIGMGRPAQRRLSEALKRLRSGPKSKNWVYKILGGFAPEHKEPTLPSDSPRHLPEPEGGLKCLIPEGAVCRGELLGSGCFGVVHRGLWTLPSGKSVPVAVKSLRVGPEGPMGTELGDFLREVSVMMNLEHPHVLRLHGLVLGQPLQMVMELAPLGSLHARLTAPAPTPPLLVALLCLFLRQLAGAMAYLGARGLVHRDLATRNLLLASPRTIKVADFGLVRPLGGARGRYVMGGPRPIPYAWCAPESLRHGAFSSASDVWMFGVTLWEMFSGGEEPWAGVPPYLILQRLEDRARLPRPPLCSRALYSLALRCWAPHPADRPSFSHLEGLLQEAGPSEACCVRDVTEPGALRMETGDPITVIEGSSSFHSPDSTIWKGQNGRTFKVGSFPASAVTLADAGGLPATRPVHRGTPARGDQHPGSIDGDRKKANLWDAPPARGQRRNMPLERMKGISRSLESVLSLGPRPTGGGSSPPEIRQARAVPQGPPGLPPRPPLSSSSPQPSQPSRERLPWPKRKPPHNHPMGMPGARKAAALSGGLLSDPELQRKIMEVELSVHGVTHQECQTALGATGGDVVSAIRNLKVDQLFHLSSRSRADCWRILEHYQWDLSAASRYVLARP
Readout: pKd
Just the number, please; pKd means minus log10 of the concentration in mol/L.

// pKd lookup, molecule = CCOc1cc(N2CCC(O)CC2)ccc1Nc1ncc2c(n1)N(C)c1ccccc1C(=O)N2C , result: 6.05

----------
Biological target: Mitogen-activated protein kinase kinase kinase 20 (Homo sapiens)
Assay: Inhibition of ZAK in human HeLa cells lysate pre incubated for 15 mins followed by ATP acyl phosphate probe addition and measured after 10 mins by LC-MS/MS analysis
Readout: IC50

Documented IC50 of CCOc1cc(N2CCC(O)CC2)ccc1Nc1ncc2c(n1)N(C)c1ccccc1C(=O)N2C : > 50 µM

----------
Target: Tyrosine-protein kinase Fyn (Homo sapiens)
Experiment: Inhibition of FYN in human HeLa cells lysate pre incubated for 15 mins followed by ADP acyl phosphate probe addition and measured after 10 mins by LC-MS/MS analysis
Readout: IC50

get_value(item= CCOc1cc(N2CCC(O)CC2)ccc1Nc1ncc2c(n1)N(C)c1ccccc1C(=O)N2C , readout=IC50) returns > 50 µM

----------
Biological target: Dual specificity mitogen-activated protein kinase kinase 6 (Homo sapiens)
Sequence (P52564 whole entry): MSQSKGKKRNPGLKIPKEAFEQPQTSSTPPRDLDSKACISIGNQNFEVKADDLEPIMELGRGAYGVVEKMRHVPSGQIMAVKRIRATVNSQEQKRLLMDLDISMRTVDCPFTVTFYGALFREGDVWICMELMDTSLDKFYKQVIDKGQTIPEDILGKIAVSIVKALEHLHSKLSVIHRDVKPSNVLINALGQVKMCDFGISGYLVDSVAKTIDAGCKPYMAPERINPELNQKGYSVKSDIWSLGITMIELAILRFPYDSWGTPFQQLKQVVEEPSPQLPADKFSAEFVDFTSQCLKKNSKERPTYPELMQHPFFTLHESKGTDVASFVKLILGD
Test: Inhibition of MAP2K6 in human HeLa cells lysate pre incubated for 15 mins followed by ADP acyl phosphate probe addition and measured after 10 mins by LC-MS/MS analysis
Type: subcellular
pIC50: −log10 of the molar value.
Readout: pIC50

Recorded result, CCOc1cc(N2CCC(O)CC2)ccc1Nc1ncc2c(n1)N(C)c1ccccc1C(=O)N2C , pIC50: < 4.30

----------
Target: Phosphatidylinositol 4-kinase beta (Homo sapiens, UniProt Q9UBF8)
Sequence (Q9UBF8 whole entry): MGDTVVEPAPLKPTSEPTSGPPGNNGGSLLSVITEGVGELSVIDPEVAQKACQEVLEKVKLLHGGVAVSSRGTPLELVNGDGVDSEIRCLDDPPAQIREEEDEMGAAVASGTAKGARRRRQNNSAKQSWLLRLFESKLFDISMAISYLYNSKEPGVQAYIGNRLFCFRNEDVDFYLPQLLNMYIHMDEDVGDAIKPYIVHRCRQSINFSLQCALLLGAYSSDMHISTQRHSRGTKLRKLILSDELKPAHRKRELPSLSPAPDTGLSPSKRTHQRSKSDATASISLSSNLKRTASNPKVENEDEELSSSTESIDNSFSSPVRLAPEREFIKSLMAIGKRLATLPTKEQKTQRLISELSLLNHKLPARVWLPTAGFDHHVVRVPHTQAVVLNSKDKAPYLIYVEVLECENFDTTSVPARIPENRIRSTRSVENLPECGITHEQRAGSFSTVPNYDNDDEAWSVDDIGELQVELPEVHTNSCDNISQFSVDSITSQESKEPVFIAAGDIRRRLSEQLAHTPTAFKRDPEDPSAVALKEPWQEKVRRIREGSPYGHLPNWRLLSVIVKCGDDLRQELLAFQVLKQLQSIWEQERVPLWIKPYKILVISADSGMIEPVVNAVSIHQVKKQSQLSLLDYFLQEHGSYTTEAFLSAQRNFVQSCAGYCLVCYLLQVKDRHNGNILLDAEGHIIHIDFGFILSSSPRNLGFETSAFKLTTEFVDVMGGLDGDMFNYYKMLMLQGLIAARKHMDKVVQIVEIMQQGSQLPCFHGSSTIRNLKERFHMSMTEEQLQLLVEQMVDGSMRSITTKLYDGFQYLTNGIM
Experiment: Inhibition of PIK4CB in human HeLa cells lysate pre incubated for 15 mins followed by ADP acyl phosphate probe addition and measured after 10 mins by LC-MS/MS analysis
Type: subcellular
Readout: IC50

The molecule CCOc1cc(N2CCC(O)CC2)ccc1Nc1ncc2c(n1)N(C)c1ccccc1C(=O)N2C on Phosphatidylinositol 4-kinase beta (Homo sapiens, UniProt Q9UBF8): IC50 was > 50 µM

----------
Biological target: Serine/threonine-protein kinase MARK2 (Homo sapiens)
Assay: Inhibition of MARK2 in human HeLa cells lysate pre incubated for 15 mins followed by ADP acyl phosphate probe addition and measured after 10 mins by LC-MS/MS analysis
Readout: IC50

Lookup result for CCOc1cc(N2CCC(O)CC2)ccc1Nc1ncc2c(n1)N(C)c1ccccc1C(=O)N2C ; measured IC50: > 50 µM

----------
Molecular target: UniProt Q04912
Experiment: Inhibition of RON in human HeLa cells lysate pre incubated for 15 mins followed by ADP acyl phosphate probe addition and measured after 10 mins by LC-MS/MS analysis
pIC50: −log10 of the molar value.
Readout: pIC50

Form field pIC50, entry CCOc1cc(N2CCC(O)CC2)ccc1Nc1ncc2c(n1)N(C)c1ccccc1C(=O)N2C : < 4.30

----------
Target: Mitogen-activated protein kinase kinase kinase 8 (Homo sapiens)
Sequence (P41279 whole entry): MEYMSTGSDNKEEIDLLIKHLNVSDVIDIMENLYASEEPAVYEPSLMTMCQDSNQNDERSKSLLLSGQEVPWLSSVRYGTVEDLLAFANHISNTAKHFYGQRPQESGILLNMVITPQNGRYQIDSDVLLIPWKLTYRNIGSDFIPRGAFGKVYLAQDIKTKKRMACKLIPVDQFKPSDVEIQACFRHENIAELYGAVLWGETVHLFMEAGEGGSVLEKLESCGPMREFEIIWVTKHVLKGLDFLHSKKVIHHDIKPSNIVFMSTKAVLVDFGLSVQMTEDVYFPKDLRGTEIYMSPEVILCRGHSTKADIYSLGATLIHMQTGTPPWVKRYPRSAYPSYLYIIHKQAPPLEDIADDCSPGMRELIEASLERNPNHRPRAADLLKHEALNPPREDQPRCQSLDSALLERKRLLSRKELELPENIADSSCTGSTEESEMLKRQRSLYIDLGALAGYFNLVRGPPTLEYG
Assay: Inhibition of COT in human HeLa cells lysate pre incubated for 15 mins followed by ADP acyl phosphate probe addition and measured after 10 mins by LC-MS/MS analysis
pIC50: −log10 of the molar value.
Readout: pIC50

For record CCOc1cc(N2CCC(O)CC2)ccc1Nc1ncc2c(n1)N(C)c1ccccc1C(=O)N2C the listed pIC50 is < 4.30

----------
Molecular target: Mitogen-activated protein kinase 4 (Homo sapiens)
Experiment: Inhibition of ERK4 in human HeLa cells lysate pre incubated for 15 mins followed by ATP acyl phosphate probe addition and measured after 10 mins by LC-MS/MS analysis
Readout: IC50

Form: molecule = CCOc1cc(N2CCC(O)CC2)ccc1Nc1ncc2c(n1)N(C)c1ccccc1C(=O)N2C ; IC50 = > 50 µM

----------
Biological target: Wee1-like protein kinase (Homo sapiens, UniProt P30291)
Sequence (P30291 whole entry): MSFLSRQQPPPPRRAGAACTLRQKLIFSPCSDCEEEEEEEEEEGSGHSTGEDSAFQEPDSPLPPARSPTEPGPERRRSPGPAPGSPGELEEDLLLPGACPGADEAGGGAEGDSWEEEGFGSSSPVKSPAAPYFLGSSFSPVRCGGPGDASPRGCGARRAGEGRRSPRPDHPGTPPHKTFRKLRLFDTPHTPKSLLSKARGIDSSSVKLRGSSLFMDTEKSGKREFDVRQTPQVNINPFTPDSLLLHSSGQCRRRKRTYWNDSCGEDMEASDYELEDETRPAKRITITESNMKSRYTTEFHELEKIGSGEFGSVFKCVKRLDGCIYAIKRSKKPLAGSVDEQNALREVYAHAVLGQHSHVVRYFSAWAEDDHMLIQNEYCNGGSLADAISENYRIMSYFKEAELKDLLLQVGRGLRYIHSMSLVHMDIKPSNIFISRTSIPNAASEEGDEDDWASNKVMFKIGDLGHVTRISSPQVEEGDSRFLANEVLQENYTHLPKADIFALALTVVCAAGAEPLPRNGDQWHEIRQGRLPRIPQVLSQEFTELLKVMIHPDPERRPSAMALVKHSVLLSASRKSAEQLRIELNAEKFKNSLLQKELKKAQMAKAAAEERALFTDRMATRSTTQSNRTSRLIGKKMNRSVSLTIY
Assay: Inhibition of Wee1 in human HeLa cells lysate pre incubated for 15 mins followed by ATP acyl phosphate probe addition and measured after 10 mins by LC-MS/MS analysis
Readout: IC50

Just so you know, measured IC50 for CCOc1cc(N2CCC(O)CC2)ccc1Nc1ncc2c(n1)N(C)c1ccccc1C(=O)N2C came out at > 50 µM

----------
Target: Cyclin-dependent kinase 10 (Homo sapiens)
Sequence (Q15131 whole entry): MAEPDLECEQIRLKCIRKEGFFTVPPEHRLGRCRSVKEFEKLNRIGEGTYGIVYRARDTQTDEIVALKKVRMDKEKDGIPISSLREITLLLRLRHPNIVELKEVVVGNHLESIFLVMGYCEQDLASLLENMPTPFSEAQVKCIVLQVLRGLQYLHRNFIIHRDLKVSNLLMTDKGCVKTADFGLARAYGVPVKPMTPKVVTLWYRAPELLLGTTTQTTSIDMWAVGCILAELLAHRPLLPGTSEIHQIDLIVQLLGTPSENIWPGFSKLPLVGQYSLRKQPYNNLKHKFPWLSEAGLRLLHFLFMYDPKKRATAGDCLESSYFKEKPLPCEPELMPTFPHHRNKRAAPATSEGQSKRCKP
Assay: Inhibition of CDK10 in human HeLa cells lysate pre incubated for 15 mins followed by ATP acyl phosphate probe addition and measured after 10 mins by LC-MS/MS analysis
Readout: IC50

Item CCOc1cc(N2CCC(O)CC2)ccc1Nc1ncc2c(n1)N(C)c1ccccc1C(=O)N2C was tested on Cyclin-dependent kinase 10 (Homo sapiens); the reported IC50 is > 50 µM

----------
Test: Plasma concentration in C57Bl/6 mouse at 50 mg/kg, ip administered for 4 day and measured 8 hr post last dose by LC-MS/MS analysis
Assay type: ADME, organism-based
Readout: concentration at 96 h (µM)
// return numeric value only (unit: µM, not printed)

Lab book: concentration at 96 h of CCOc1cc(N2CCC(O)CC2)ccc1Nc1ncc2c(n1)N(C)c1ccccc1C(=O)N2C noted as 9

----------
Target: Ephrin type-A receptor 2 (Homo sapiens, UniProt P29317)
Assay: Inhibition of EphA2 in human HeLa cells lysate pre incubated for 15 mins followed by ATP acyl phosphate probe addition and measured after 10 mins by LC-MS/MS analysis
pIC50: −log10 of the molar value.
Readout: pIC50

Memo: CCOc1cc(N2CCC(O)CC2)ccc1Nc1ncc2c(n1)N(C)c1ccccc1C(=O)N2C , reported pIC50: < 4.30

----------
Assay: Tmax in Sprague-Dawley rat at 2 mg/kg, po measured up to 8 hrs by LC-MS/MS analysis
Assay type: ADME, organism-based
Details: in vivo
Readout: Tmax (min)
Provide only the numeric value, understood in min.

// CCOc1cc(N2CCC(O)CC2)ccc1Nc1ncc2c(n1)N(C)c1ccccc1C(=O)N2C : Tmax value = 30

----------
Molecular target: RAC-alpha serine/threonine-protein kinase (Homo sapiens, UniProt P31749)
Test: Inhibition of AKT1 in human HeLa cells lysate pre incubated for 15 mins followed by ATP acyl phosphate probe addition and measured after 10 mins by LC-MS/MS analysis
Readout: IC50

The compound CCOc1cc(N2CCC(O)CC2)ccc1Nc1ncc2c(n1)N(C)c1ccccc1C(=O)N2C showed IC50 equal to > 50 µM

----------
Assay: Cmax in Sprague-Dawley rat at 1 mg/kg, iv measured up to 8 hrs by LC-MS/MS analysis
Format: ADME, organism-based
Conditions: in vivo
Readout: Cmax (nM)
Field: numeric (nM). Do not append units.

Lab note: CCOc1cc(N2CCC(O)CC2)ccc1Nc1ncc2c(n1)N(C)c1ccccc1C(=O)N2C gave Cmax of 927
